Biological target: menin protein (Homo sapiens, UniProt O00255)
MEASURE_NAME: IC50 (nM)

Consider the worked cases shown below.
Please indicate IC50 recorded for `C=CC(=O)N1CCCC[C@H](S(=O)(=O)c2ccc(N3CC(F)(CN4CCC([C@@](CN5CCC5)(c5cccc(F)c5)[C@H]5CCC[C@@H]5NC(=O)OC)CC4)C3)c(F)c2)C1`
4

Specify reported IC50 for the compound shown: `COC(=O)N[C@H]1CCC[C@@H]1[C@](CN1CCC1)(c1cccc(F)c1)C1CCN(CC2(F)CN(c3ccc(S(=O)(=O)C4CN(C(=O)/C=C/CN(C)C)C4)cc3)C2)CC1`
2

Report measured IC50; entry is `C=C(CN1CCOCC1)C(=O)N1CC(S(=O)(=O)c2ccc(N3CC(CN4CCC([C@](CN5CCC5)(c5cccc(F)c5)[C@H]5CCC[C@@H]5NC(=O)OC)CC4)C3)cc2)C1`
4

A: COC(=O)N[C@H]1CCC[C@@H]1[C@](CN1CCC1)(c1cccc(F)c1)C1CCN(CC2CN(c3ccc(C(F)(F)C4CN(C(=O)/C=C/CN5CCCCC5)C4)cc3)C2)CC1
B: C=CC(=O)N1CCCCC(S(=O)(=O)c2ccc(N3CC(F)(CN4CCC([C@@](CN5CCC5)(c5cccc(F)c5)[C@H]5CCC[C@@H]5NC(=O)OC)CC4)C3)cc2)C1 (stereo partly drawn)
Of A and B , whose reported IC50 is numerically smaller? Provide the label of your selected option as the answer.
B

###

Target chain: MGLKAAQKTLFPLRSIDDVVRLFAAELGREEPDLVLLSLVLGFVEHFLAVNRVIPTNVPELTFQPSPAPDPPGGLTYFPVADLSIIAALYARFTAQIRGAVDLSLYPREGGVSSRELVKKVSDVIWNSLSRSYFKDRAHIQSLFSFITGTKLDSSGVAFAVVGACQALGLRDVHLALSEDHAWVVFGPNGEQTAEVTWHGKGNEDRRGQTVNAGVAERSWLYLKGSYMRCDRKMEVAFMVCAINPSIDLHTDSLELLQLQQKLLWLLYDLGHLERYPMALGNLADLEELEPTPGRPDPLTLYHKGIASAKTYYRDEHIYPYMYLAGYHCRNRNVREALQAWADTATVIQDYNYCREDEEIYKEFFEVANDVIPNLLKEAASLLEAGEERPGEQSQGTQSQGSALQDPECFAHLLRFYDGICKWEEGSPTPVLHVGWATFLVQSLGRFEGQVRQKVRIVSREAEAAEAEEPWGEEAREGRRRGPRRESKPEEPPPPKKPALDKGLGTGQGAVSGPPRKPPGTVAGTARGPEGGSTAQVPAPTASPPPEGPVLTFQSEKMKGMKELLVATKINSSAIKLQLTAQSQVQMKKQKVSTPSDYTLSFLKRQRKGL
MEASURE_NAME: IC50 (nM)

Sample answers from the record:
Please supply the value of reported IC50 for the item C=CC(=O)N1CCCC[C@H](S(=O)(=O)c2ccc(N3CC(CN4CCC([C@@](CN5CCC5)(c5cccc(F)c5)[C@H]5CCC[C@@H]5NC(=O)OC)CC4)(OC)C3)cc2)C1 [compound 234]
4

Look up and state reported IC50 for COC(=O)N[C@H]1CCC[C@@H]1[C@](CN1CCC1)(c1cccc(F)c1)C1CCN(CC2CN(c3ccc(S(=O)(=O)C4CN(C(=O)/C=C/CN5CCC(C)(O)CC5)C4)cc3)C2)CC1 [compound 99]
9

State, in one line, measured IC50 of C=C(CN(C)C)C(=O)N1CC(S(=O)(=O)c2ccc(N3CC(CN4CCC([C@@](CN5CCC5)(c5cccc(F)c5)[C@H]5CCC[C@@H]5NC(=O)OC)CC4)C3)cc2)C1 [Cpd. No. 10]
3

Find the measured IC50 of C=CC(=O)N1CCCC[C@@H](S(=O)(=O)c2ccc(N3CC(CN4CCC([C@@](CN5CCC5)(c5cccc(F)c5)[C@H]5CCC[C@@H]5NC(=O)OC)CC4)(OC)C3)c(F)c2)C1 [compound 227] and report it.
7

Query IC50 for COC(=O)N[C@H]1CCC[C@@H]1[C@](CNC(C)=O)(c1cccc(F)c1)C1CCN(CC2CN(c3ccc(S(=O)(=O)C4CN(C(=O)/C=C/CN5CCCCC5)C4)c(CN4CC(F)C4)c3)C2)CC1 [compound 131]
2

1: COC(=O)N[C@H]1CCC[C@@H]1[C@@](CN1CCC1)(c1cccc(F)c1)C1CCN(CC2CN(c3ccc(S(=O)(=O)C4CN(C(=O)/C=C/CN5CCOCC5)C4)cc3)C2)CC1 [Cpd. No. 31]
2: COC(=O)N[C@H]1CCC[C@@H]1[C@](CN1CCC1)(c1cccc(F)c1)C1CCN(CC2CN(c3ccc(S(=O)(=O)C4CN(C(=O)/C=C/CN5CCC(F)CC5)C4)cc3)C2)CC1 [compound 100]
Of 1 and 2 , which one carries the higher reported IC50? Field: selected label. Fill in the label of the entry you choose.
1
